- Read-out: Tissue plasminogen activator (tPA), PLAT (gene 5327)
- measurement-notes: BSK_BE3C_tPA: BioMAP Diversity Plus: BE3C Assay for Tissue plasminogen activator (tPA) Biomarker Activity (AID 2283041)
- protocol-conditions: primary human bronchial epithelial cells; actives raise or lower the signal
Active and inactive are the calls of the source. How the source made its calls: active means hit-call score of the fitted dose curve at least 0.9, where 1 is the maximum; inactive means score below 0.9.
Outcomes: active, inactive

compound | assigned-class
COC(=O)CCCCC(=O)OC | inactive
OCCC(F)(F)C(F)(F)C(F)(F)C(F)(F)C(F)(F)C(F)(F)F | inactive
CCCCCCCCCCCCCCCS(=O)(=O)Oc1ccccc1 | inactive
CCCOC(=O)c1ccc(O)cc1 | inactive
CN1CCN(c2ccccc2/C=C2\SCCN(c3ccc(Cl)c(Cl)c3)C2=O)CC1 | active
CC(=O)CC(C)(C)O | inactive
Oc1cccc(O)c1 | inactive
O=[N+]([O-])c1ccc(O)cc1 | inactive
COCC(C)OCC(C)O (stereo not drawn) | inactive
CC[C@H](C)[C@@H](C(=O)O)n1sc2ccccc2c1=O | inactive
CC(C)(C)c1cc(C(C)(C)C)c(O)c(C(C)(C)C)c1 | inactive
CC[C@H](c1ccc(O)cc1)[C@@H](CC)c1ccc(O)cc1 | active
O=C(OCCOCCOC(=O)c1ccccc1)c1ccccc1 | inactive

====

- study-target: CCAAT/enhancer-binding protein beta (Homo sapiens) (UniProt P17676)
- Sequence (P17676 whole entry, looked up): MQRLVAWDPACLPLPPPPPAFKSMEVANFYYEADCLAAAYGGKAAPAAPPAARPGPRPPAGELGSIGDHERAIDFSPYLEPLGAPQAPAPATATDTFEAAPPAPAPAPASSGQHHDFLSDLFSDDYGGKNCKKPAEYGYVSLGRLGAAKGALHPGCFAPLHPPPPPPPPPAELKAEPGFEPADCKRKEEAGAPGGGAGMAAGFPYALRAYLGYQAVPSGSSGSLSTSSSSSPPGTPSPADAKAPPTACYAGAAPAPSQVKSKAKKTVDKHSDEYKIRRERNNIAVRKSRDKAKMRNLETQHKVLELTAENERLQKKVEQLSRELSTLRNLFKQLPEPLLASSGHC
- measurement-notes: ATG_C_EBP_CIS: Attagene CIS-FACTORIAL HepG2 Assay for human CCAAT/Enhancer Binding Protein (C/EBP) beta (AID 2282927)
- protocol-conditions: HepG2 Attagene cis-factorial transcription factor reporter; actives raise or lower the signal
The source made the active and inactive calls. The calls were made as follows: active = hit-call score of the fitted dose curve at least 0.9, where 1 is the maximum; inactive = score below 0.9.
Outcomes: active, inactive

compound | study-target | assigned-class
COCC(C)O (stereo not given) | CCAAT/enhancer-binding protein beta (Homo sapiens) (UniProt P17676) | inactive
COc1ccc([N+](=O)[O-])cc1N | CCAAT/enhancer-binding protein beta (Homo sapiens) (UniProt P17676) | inactive
CC#C[C@]1(O)CC[C@H]2[C@@H]3CCC4=CC(=O)CCC4=C3[C@@H](c3ccc(N(C)C)cc3)C[C@@]21C | CCAAT/enhancer-binding protein beta (Homo sapiens) (UniProt P17676) | inactive
OC1CCCCC1 | CCAAT/enhancer-binding protein beta (Homo sapiens) (UniProt P17676) | inactive
CN(C)C=O | CCAAT/enhancer-binding protein beta (Homo sapiens) (UniProt P17676) | inactive
N#C[C@@H]1CC(F)(F)CN1C(=O)CNC1CC2CCC(C1)N2c1ncccn1 (stereo not given in full) | CCAAT/enhancer-binding protein beta (Homo sapiens) (UniProt P17676) | inactive
O=C(/C=C/c1ccc(O)cc1)CC(=O)/C=C/c1ccc(O)cc1 | CCAAT/enhancer-binding protein beta (Homo sapiens) (UniProt P17676) | inactive
CCCCC(CC)COC(=O)CCCCC(=O)OCc1ccccc1 (stereo not given) | CCAAT/enhancer-binding protein beta (Homo sapiens) (UniProt P17676) | inactive
C[C@@H]1C[C@H]2[C@@H]3CCC4=CC(=O)C=C[C@]4(C)[C@@]3(F)[C@@H](O)C[C@]2(C)[C@@]1(O)C(=O)COP(=O)(O)O | CCAAT/enhancer-binding protein beta (Homo sapiens) (UniProt P17676) | inactive
Cc1ccc(S(=O)(=O)O)c(C)c1 | CCAAT/enhancer-binding protein beta (Homo sapiens) (UniProt P17676) | inactive
CCC(=C(c1ccc(O)cc1)c1ccc(OCCN(C)C)cc1)c1ccccc1 | CCAAT/enhancer-binding protein beta (Homo sapiens) (UniProt P17676) | inactive
CCCCCCCC(=O)O | CCAAT/enhancer-binding protein beta (Homo sapiens) (UniProt P17676) | inactive
CC[C@H](c1ccc(O)cc1)[C@@H](CC)c1ccc(O)cc1 | CCAAT/enhancer-binding protein beta (Homo sapiens) (UniProt P17676) | inactive
CC(C)(C)c1ccc(O)c(C(C)(C)C)c1 | CCAAT/enhancer-binding protein beta (Homo sapiens) (UniProt P17676) | inactive
CCCCCCCCCCCCCCCS(=O)(=O)Oc1ccccc1 | CCAAT/enhancer-binding protein beta (Homo sapiens) (UniProt P17676) | inactive
CC(=O)NC1(c2cccc(F)c2)CCN(CC[C@@]2(c3ccc(Cl)c(Cl)c3)CN(c3ccccc3)C(=O)CO2)CC1 | CCAAT/enhancer-binding protein beta (Homo sapiens) (UniProt P17676) | active
CCCCC(CC)COC(=O)CCCCC(=O)OCC(CC)CCCC (stereo not given) | CCAAT/enhancer-binding protein beta (Homo sapiens) (UniProt P17676) | inactive
CCc1ccc(CCOc2ccc(CC3SC(=O)NC3=O)cc2)nc1 (stereo not given) | CCAAT/enhancer-binding protein beta (Homo sapiens) (UniProt P17676) | inactive
CCCCCCCCC(=O)O | CCAAT/enhancer-binding protein beta (Homo sapiens) (UniProt P17676) | inactive
CC(C)(C)CC(C)(C)c1ccc(O)c(-n2nc3ccccc3n2)c1 | CCAAT/enhancer-binding protein beta (Homo sapiens) (UniProt P17676) | inactive
FC(F)(I)C(F)(F)C(F)(F)C(F)(F)C(F)(F)C(F)(F)I | CCAAT/enhancer-binding protein beta (Homo sapiens) (UniProt P17676) | inactive
Cc1cc(C)c(O)c(C)c1 | CCAAT/enhancer-binding protein beta (Homo sapiens) (UniProt P17676) | inactive
c1ccc2cc3c(ccc4ccccc43)cc2c1 | CCAAT/enhancer-binding protein beta (Homo sapiens) (UniProt P17676) | inactive
Cc1oc(-c2ccccc2)nc1CCOc1ccc(C[C@H](Nc2ccccc2C(=O)c2ccccc2)C(=O)O)cc1 | CCAAT/enhancer-binding protein beta (Homo sapiens) (UniProt P17676) | inactive
CCCCCCCCCCCCc1ccccc1S(=O)(=O)O | CCAAT/enhancer-binding protein beta (Homo sapiens) (UniProt P17676) | inactive
